The measured values listed here are drawn from patent US20250026724A1.

test system: Abutilon theophrasti (ABUTH); assay: Post-emergence herbicidal action, greenhouse pot trial; assay type: in vivo; conditions: Abutilon theophrasti, 504 h, 80 g/ha, visual rating after about 3 weeks, read-out: Post-emergence effect at 80 g/ha against ABUTH in %
EXPERIMENTAL_ENDPOINT: pest or weed control at 80 g/ha (%)
State just the number; it will be interpreted in %.

In the examples that follow, each entry is paired with its recorded pest or weed control at 80 g/ha.
molecule="COC(=O)C(Oc1nn(-c2ccccc2F)c(-c2ccc(F)nc2)c1Br)SC (stereo not shown)" experimental_endpoint="pest or weed control at 80 g/ha" obs_value=90
molecule="COC(=O)C(Oc1nn(-c2ncccc2F)c(-c2ccc(F)nc2)c1Br)SC (single isomer, unassigned)" experimental_endpoint="pest or weed control at 80 g/ha" obs_value=80
molecule="CCOC(=O)C(Oc1nn(-c2ncccc2F)c(-c2cncc(F)c2)c1Br)SC (stereo not shown)" experimental_endpoint="pest or weed control at 80 g/ha" obs_value=90

Attention now turns to another entry.
Qu. Determine from records and report pest or weed control at 80 g/ha for CCOC(=O)C(Oc1nn(-c2ncccc2F)c(-c2ccc(F)nc2)c1C1CC1)SC (stereo not shown)
Ans. 80

----------
tested on: Zea mays (ZEAMX); assay: Post-emergence crop plant compatibility, greenhouse pot trial; assay type: in vivo; conditions: 20 g/ha, in comparison to untreated controls
Each entry below carries its recorded Post-emergence effect against ZEAMX (crop plant compatibility).
State just the number; it will be interpreted in %.

In the examples that follow, each entry is paired with its recorded Post-emergence effect against ZEAMX (crop plant compatibility).
compound="CCOC(=O)C(Oc1nn(-c2ncccc2F)c(-c2ccc(Cl)cc2)c1Br)SC (centres unmarked)" measured_target="Zea mays (ZEAMX)" obs_value=0
compound="COC(=O)CCOC(=O)C(Oc1nn(-c2ccccc2F)c(-c2ccc(F)nc2)c1I)SC (centres unmarked)" measured_target="Zea mays (ZEAMX)" obs_value=0
compound="COC(=O)CCOC(=O)C(Oc1nn(-c2ncccc2F)c(-c2cncc(F)c2)c1C1CC1)SC (centres unmarked)" measured_target="Zea mays (ZEAMX)" obs_value=0

Attention now turns to another entry.
Qu. Determine from records and report Post-emergence effect against ZEAMX (crop plant compatibility) for COC(=O)CCOC(=O)C(Oc1nn(-c2ncccc2F)c(-c2cncc(F)c2)c1Br)SC (centres unmarked)
Ans. 0

----------
tested on: Echinochloa crus-galli (ECHCG); assay: Post-emergence herbicidal action, greenhouse pot trial; assay type: in vivo; conditions: Echinochloa crus-galli, 504 h, 80 g/ha, visual rating after about 3 weeks, read-out: Post-emergence effect at 80 g/ha against ECHCG in %
EXPERIMENTAL_ENDPOINT: pest or weed control at 80 g/ha (%)
State just the number; it will be interpreted in %.

compound="COC(=O)C(Oc1nn(-c2ncccc2F)c(-c2ccc(F)nc2)c1Br)SC (single isomer, unassigned)" experimental_endpoint="pest or weed control at 80 g/ha" obs_value=90
compound="COC(=O)C(Oc1nn(-c2ncccc2F)c(-c2ccc(F)nc2)c1Cl)SC (stereo not shown)" experimental_endpoint="pest or weed control at 80 g/ha" obs_value=90
compound="CCOC(=O)C(Oc1nn(-c2ccccc2F)c(-c2ccc(F)nc2)c1Br)SC (stereo not shown) [Example I-01]" experimental_endpoint="pest or weed control at 80 g/ha" obs_value=80

Attention now turns to another entry.
Qu. Determine from records and report pest or weed control at 80 g/ha for CCOC(=O)C(Oc1nn(-c2ncccc2F)c(-c2ccc(F)nc2)c1Br)SC (single isomer, unassigned) [Example I-28]
Ans. 90

----------
Each entry below carries its recorded pest or weed control at 320 g/ha.
system: Abutilon theophrasti (ABUTH); assay: Post-emergence herbicidal action, greenhouse pot trial; format: in vivo; details: Abutilon theophrasti, 504 h, 320 g/ha, visual rating after about 3 weeks, read-out: Post-emergence effect at 320 g/ha against ABUTH in %
State just the number; it will be interpreted in %.

In the examples that follow, each entry is paired with its recorded pest or weed control at 320 g/ha.
compound="CSC(Oc1nn(-c2ccccc2F)c(-c2ccc(F)nc2)c1I)C(=O)O (stereo not shown) [Example I-21]" obs_value=80
compound="COC(=O)C(Oc1nn(-c2ccccc2F)c(-c2ccc(F)nc2)c1Br)SC (stereo not shown) [Example I-10]" obs_value=90
compound="COC(=O)C(Oc1nn(-c2ncccc2F)c(-c2ccc(F)nc2)c1Br)SC (single isomer, unassigned) [Example I-26]" obs_value=80
compound="CCOC(=O)C(Oc1nn(-c2ccccc2)c(-c2ccc(F)nc2)c1Br)SC (stereo not shown) [Example I-04]" obs_value=80

Qu. Determine from records and report pest or weed control at 320 g/ha for CCOC(=O)C(Oc1nn(-c2ccccc2F)c(-c2ccc(F)nc2)c1Br)SC (stereo not shown) [Example I-01]
Ans. 80

Qu. Determine from records and report pest or weed control at 320 g/ha for CCOC(=O)C(Oc1nn(-c2ncccc2F)c(-c2ccc(F)nc2)c1I)SC (stereo not shown) [Example I-18]
Ans. 90

Qu. Determine from records and report pest or weed control at 320 g/ha for CCOC(=O)C(Oc1nn(-c2cc(F)ccc2F)c(-c2cncc(F)c2)c1Br)SC (stereo not shown) [Example I-03]
Ans. 80

Qu. Determine from records and report pest or weed control at 320 g/ha for CSC(Oc1nn(-c2ncccc2F)c(-c2cncc(F)c2)c1C1CC1)C(=O)O (stereo not shown) [Example I-44]
Ans. 90

Qu. Determine from records and report pest or weed control at 320 g/ha for CSC(Oc1nn(-c2ncccc2F)c(-c2cncc(F)c2)c1Br)C(=O)O (stereo not shown) [Example I-42]
Ans. 90

Qu. Determine from records and report pest or weed control at 320 g/ha for CSC(Oc1nn(-c2ncccc2F)c(-c2ccc(F)nc2)c1C(F)(F)F)C(=O)O (stereo not shown) [Example I-38]
Ans. 80

----------
tested on: Amaranthus retroflexus (AMARE); assay: Post-emergence herbicidal action, greenhouse pot trial; format: in vivo; conditions: Amaranthus retroflexus, 504 h, 320 g/ha, visual rating after about 3 weeks, read-out: Post-emergence effect at 320 g/ha against AMARE in %
Each entry below carries its recorded pest or weed control at 320 g/ha.
State just the number; it will be interpreted in %.

In the examples that follow, each entry is paired with its recorded pest or weed control at 320 g/ha.
compound="CSC(Oc1nn(-c2ccccc2F)c(-c2ccc(F)nc2)c1I)C(=O)O (stereo not shown)" obs_value=90
compound="CCOC(=O)C(Oc1nn(-c2ccccc2F)c(-c2ccc(F)nc2)c1C(F)(F)F)SC (stereo not shown)" obs_value=80
compound="COC(=O)C(Oc1nn(-c2ccccc2F)c(-c2ccc(F)nc2)c1Br)SC (stereo not shown)" obs_value=80

Qu. Determine from records and report pest or weed control at 320 g/ha for COC(=O)C(Oc1nn(-c2cc(F)ccc2F)c(-c2cncc(F)c2)c1C1CC1)SC (stereo not shown)
Ans. 80

Qu. Determine from records and report pest or weed control at 320 g/ha for CCOC(=O)C(Oc1nn(-c2ccccc2F)c(-c2ccc(F)nc2)c1I)SC (stereo not shown)
Ans. 90

Qu. Determine from records and report pest or weed control at 320 g/ha for CSC(Oc1nn(-c2ncccc2F)c(-c2cncc(F)c2)c1C1CC1)C(=O)O (stereo not shown)
Ans. 90

Qu. Determine from records and report pest or weed control at 320 g/ha for CCOC(=O)C(Oc1nn(-c2ncccc2F)c(-c2ccc(F)cc2F)c1Br)SC (stereo not shown)
Ans. 80

Qu. Determine from records and report pest or weed control at 320 g/ha for CSC(Oc1nn(-c2ncccc2F)c(-c2cncc(F)c2)c1Br)C(=O)O (stereo not shown)
Ans. 90

Qu. Determine from records and report pest or weed control at 320 g/ha for CSC(Oc1nn(-c2ncccc2F)c(-c2ccc(F)nc2)c1Br)C(=O)O (single isomer, unassigned) [Example I-24]
Ans. 80

Qu. Determine from records and report pest or weed control at 320 g/ha for CSC(Oc1nn(-c2ncccc2F)c(-c2ccc(F)nc2)c1Br)C(=O)O (stereo not shown) [Example I-34]
Ans. 80

Qu. Determine from records and report pest or weed control at 320 g/ha for CCOC(=O)C(Oc1nn(-c2ncccc2F)c(-c2cncc(F)c2)c1C1CC1)SC (stereo not shown)
Ans. 90

----------
tested on: Pharbitis purpurea (PHBPU); experiment: Post-emergence herbicidal action, greenhouse pot trial; type: in vivo; conditions: Ipomoea purpurea, 504 h, 320 g/ha, visual rating after about 3 weeks, read-out: Post-emergence effect at 320 g/ha against PHBPU in %
Each entry below carries its recorded pest or weed control at 320 g/ha.
State just the number; it will be interpreted in %.

In the examples that follow, each entry is paired with its recorded pest or weed control at 320 g/ha.
molecule="CCOC(=O)C(Oc1nn(-c2ccccc2F)c(-c2ccc(F)nc2)c1Br)SC (centres unmarked) [Example I-01]" experimental_endpoint="pest or weed control at 320 g/ha" obs_value=90
molecule="COC(=O)C(Oc1nn(-c2ncccc2F)c(-c2ccc(F)nc2)c1C1CC1)SC (centres unmarked)" experimental_endpoint="pest or weed control at 320 g/ha" obs_value=90

Qu. Determine from records and report pest or weed control at 320 g/ha for CSC(Oc1nn(-c2ncccc2F)c(-c2cncc(F)c2)c1Br)C(=O)O (centres unmarked)
Ans. 90

Qu. Determine from records and report pest or weed control at 320 g/ha for COC(=O)C(Oc1nn(-c2cc(F)ccc2F)c(-c2cncc(F)c2)c1C1CC1)SC (centres unmarked)
Ans. 90
